Reference source: patent US20020115642A1

# Tested on: Staphylococcus aureus
# Assay: Susceptibility testing (MIC, modified NCCLS method)
# Assay type: cell-based
# Reported conditions: S. aureus ATCC 700260
Parameter: MIC (µg/mL)
Output spec: scalar in µg/mL, unitless text.

Form field: reported MIC of CON=C(C(=O)NC1C(=O)N2C(C(=O)O)=C(COc3cc(Cl)ccc3Oc3ccc(Cl)cc3Cl)CSC12)c1csc(N)n1 (stereo not drawn)
0.063

Using the record for Cc1nnc(SCC(=O)Nc2ncc(CC(=O)NC3C(=O)N4C(C(=O)O)=C(COc5cc(Cl)ccc5Oc5ccc(Cl)cc5Cl)CSC34)s2)s1 (stereo not drawn) , report its MIC.
8

Now, please, on to the next compound.
Recorded MIC for O=C(Cc1cccs1)NC1C(=O)N2C(C(=O)O)=C(C=CCOc3ccc(Cl)cc3C(=O)Nc3ccc(Cl)c(Cl)c3)CS[C@H]12 (stereo partly drawn) , please?
0.25

* * *

Here, each record is paired with measured MIC data.
# System: E. faecalis
# Assay: Susceptibility testing (MIC, modified NCCLS method)
# Type: cell-based, Enterococcus faecalis
# Reported conditions: Enterococcus faecalis, ATCC49757; E. faecalis ATCC 49757; read-out: MIC

Look over these answered cases.
So what does the record say about MIC for O=C(Cn1cnnn1)NC1C(=O)N2C(C(=O)O)=C(COc3cc(Cl)ccc3Oc3ccc(Cl)cc3Cl)CS[C@H]12 (some centres unmarked) ?
8 µg/mL

May I ask what MIC has been recorded for O=C(O)CCC(=O)N[C@@H]1C(=O)N2C(C(=O)O)=C(COc3cc(Cl)ccc3Oc3ccc(Cl)cc3Cl)CS[C@H]12 ?
> 32 µg/mL

I am curious: what MIC value has been reported for NC(C(=O)NC1C(=O)N2C(C(=O)O)=C(COc3cc(Cl)ccc3Oc3ccc(Cl)cc3Cl)CS[C@H]12)c1ccc(O)cc1 (some centres unmarked) ?
32 µg/mL

Recorded MIC for O=C(Cc1cccs1)NC1C(=O)N2C(C(=O)O)C(COC(=O)Oc3cc(Cl)ccc3Oc3ccc(Cl)cc3Cl)=CS[C@H]12 (some centres unmarked) , please?
> 15.7 µg/mL

Now look at this entry.
Requested read-out: MIC. Entry: O=C(COc1ccc(O)cc1)NC1C(=O)N2C(C(=O)O)=C(COc3cc(Cl)ccc3Oc3ccc(Cl)cc3Cl)CS[C@H]12 (some centres unmarked)
16 µg/mL

* * *

# Test system: E coli R(Tem1)
# Assay: Inhibition of bacterial growth (IC50, OD600)
# Format: cell-based
# Reported conditions: Escherichia coli, 20 h, read-out: IC50 20 hours, Cell R (Tem1), 20 hours
Parameter: pIC50
The quantity pIC50 is defined as the negative base-10 logarithm of the molar concentration.

Item under review: O=C(Cc1cccs1)N[C@@H]1C(=O)N2C(C(=O)O)=C(COc3cc(Cl)ccc3Oc3ccc(Cl)cc3Cl)CS[C@H]12 [Compound 9] . Reported pIC50?
8.38

* * *

# Tested on: K. pneumoniae
# Assay: Susceptibility testing (MIC, modified NCCLS method)
# Format: cell-based, Klebsiella pneumoniae
# Reported conditions: Klebsiella pneumoniae, ATCC51503; K. pneumoniae ATCC 51503; read-out: MIC
# Method: The NCCLS (National Committee for Clinical Laboratory Standards) method to determine MIC's of antimicrobial compounds was modified for high-throughput screening. All stocks of tested compounds were prepared in either water or in dimethylsulfoxide (DMSO), depending on the solubility. […] Bacterial growth was determined by the increase of optical density at 600 nm using a microplate reader (Tecan SpectraFluor Plus).
MIC: recorded values

Below are worked cases with known answers.
Give its MIC value. Item: O=C(COc1ccc(O)cc1)NC1C(=O)N2C(C(=O)O)=C(COc3cc(Cl)ccc3Oc3ccc(Cl)cc3Cl)CS[C@H]12 (some centres unmarked)
16 µg/mL

So what's the measured MIC for this one? O=C(Cn1cnnn1)NC1C(=O)N2C(C(=O)O)=C(COc3cc(Cl)ccc3Oc3ccc(Cl)cc3Cl)CS[C@H]12 (some centres unmarked)
8 µg/mL

Consider the molecule O=C(O)CCC(=O)N[C@@H]1C(=O)N2C(C(=O)O)=C(COc3cc(Cl)ccc3Oc3ccc(Cl)cc3Cl)CS[C@H]12 and give its measured MIC.
> 32 µg/mL

Next:
Tell me the measured MIC of O=C(Cc1cccs1)NC1C(=O)N2C(C(=O)O)C(COC(=O)Oc3cc(Cl)ccc3Oc3ccc(Cl)cc3Cl)=CS[C@H]12 (some centres unmarked) , please.
1.96 µg/mL

Query: MIC; subject: NC(C(=O)NC1C(=O)N2C(C(=O)O)=C(COc3cc(Cl)ccc3Oc3ccc(Cl)cc3Cl)CS[C@H]12)c1ccc(O)cc1 (some centres unmarked)
8 µg/mL
